- tgt: human FLAP (Homo sapiens (Human), UniProt P20292)
- Sequence (P20292 whole entry): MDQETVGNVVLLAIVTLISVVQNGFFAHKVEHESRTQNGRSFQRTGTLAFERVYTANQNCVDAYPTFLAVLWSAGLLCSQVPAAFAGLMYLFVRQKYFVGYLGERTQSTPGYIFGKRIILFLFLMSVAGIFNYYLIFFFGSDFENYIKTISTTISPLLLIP
- assay details: FLAP binding assay (HTRF format)
- settings: wild type FLAP, HTRF format
Item-by-item account of Ki

# mol smiles, Ki
data = [
    ("Nc1cnc(-c2ccc(-c3cccnc3C(=O)N3CCOCC3)cc2F)cn1", "> 10 µM"),
    ("Nc1ncc(-c2ccc(-c3ccccc3S(=O)(=O)c3ncccn3)cc2F)cn1", "> 10 µM"),
]

Query string: What value of measured Ki is listed for `Nc1ncc(-c2ccc(-c3ccccc3C(=O)N3CCNC(=O)C3)cc2F)cn1` ?
Result string: > 10 µM

---

- tgt: human FLAP (Homo sapiens (Human))
- assay details: FLAP binding assay (HTRF format)
- settings: wild type FLAP, HTRF format
pKi: −log10 of the molar value. Where a name gives a salt, the structure may show the parent alone.
measured parameter: pKi

Consider the following illustrative entries.
# compound, tgt, recorded number
data = [
    ("Nc1cnc(-c2ccc(-c3ccccc3Oc3cc(N)ncn3)cc2F)cn1", "human FLAP (Homo sapiens (Human))", 9.00),
    ("CNS(=O)(=O)c1ccccc1-c1ccc(-c2cnc3[nH]cc(CO)c3c2)c(F)c1", "human FLAP (Homo sapiens (Human))", 8.52),
    ("CC(C)(C)NS(=O)(=O)c1ccccc1-c1ccc(-c2cnc(N)c(Cl)n2)c(F)c1", "human FLAP (Homo sapiens (Human))", 9.00),
    ("Fc1cc(-c2ccccc2Oc2ncccn2)ccc1-c1ccc2[nH]cnc2c1", "human FLAP (Homo sapiens (Human))", 6.35),
    ("CC(C)(C)NS(=O)(=O)c1ccccc1-c1ccc(-c2cnc(N)c(C#N)c2)c(F)c1 [Example 450, trifluoroacetic acid salt]", "human FLAP (Homo sapiens (Human))", 7.13),
    ("CCS(=O)(=O)N(C)c1ccccc1-c1ccc(-c2cnc(N)cn2)c(F)c1", "human FLAP (Homo sapiens (Human))", 7.49),
    ("Nc1cnc(-c2ccc(-c3ccccc3C(=O)N3CCOC(CO)C3)cc2F)cn1 (racemic)", "human FLAP (Homo sapiens (Human))", 6.59),
    ("Nc1cnc(-c2ccc(-c3ccc(C(F)(F)F)cc3C(F)(F)F)cc2F)cn1", "human FLAP (Homo sapiens (Human))", 7.26),
    ("CC(C)(C)NS(=O)(=O)c1ccccc1-c1ccc(-c2cnc3cc[nH]c3c2)c(F)c1", "human FLAP (Homo sapiens (Human))", 8.70),
    ("CC(C)(C)NS(=O)(=O)c1ccccc1-c1ccc(-c2cnc3c(c2)CCN3)c(F)c1", "human FLAP (Homo sapiens (Human))", 9.00),
]

(P) Nc1ncc(-c2ccc(-c3ccccc3S(=O)(=O)N3CCC(F)(F)CC3)cn2)cn1 [Example 682, trifluoroacetic acid salt]
(Q) CC(C)(C)NC(=O)c1cc(C(F)(F)F)ccc1-c1ccc(-c2cnc(N)nc2)c(F)c1
Query string: Looking at recorded values for pKi, does P or Q come in lower? # respond with the chosen item's label
Result string: P
(P: 6.65, Q: 7.48)
